Quick reference for % Inhibition among some substances
Tested on: PTP1B mRNA
Test Details: Dose response for human PTP1B in HuVEC cells, PPS 198 and PPS 3000 (Tables 86, 87)
Format: cell-based
Measurement Conditions: PPS 3000, 30.0 nM
Strand notation (5' to 3'): a small letter for the sugar, then the base; units joined by * are phosphorothioate-linked, units joined directly phosphodiester-linked; [ ] holds rarer units or linkages, { } end groups; capitals alone tell only the bases. e = 2'-O-(2-methoxyethyl) (MOE); [5mC] = 5-methylcytosine; d = 2'-deoxy (DNA)

{"Substance": "399208 (eA*eG*d[5mC]*dT*d[5mC]*dG*d[5mC]*dT*dA*d[5mC]*d[5mC]*dT*e[5mC]*eT; antisense) [compound 399208]", "% Inhibition / %": 96}
{"Substance": "399096 (eT*eG*d[5mC]*dT*d[5mC]*dG*dA*dA*d[5mC]*dT*d[5mC]*d[5mC]*eT*eT; antisense) [compound 399096]", "% Inhibition / %": 94}
{"Substance": "399301 (GTGTGCACACAGCT; all C 5-methyl, all phosphorothioate, sugars by position not given here; further chemistry not fully specified) [compound 399301]", "% Inhibition / %": 99}
{"Substance": "399132 (eG*eG*dG*d[5mC]*dT*dG*dA*dG*dT*dG*dA*d[5mC]*e[5mC]*e[5mC]; antisense) [compound 399132]", "% Inhibition / %": 91}
{"Substance": "399276 (eG*eA*dG*dG*dT*dA*dT*d[5mC]*d[5mC]*d[5mC]*dA*dT*e[5mC]*eT; antisense) [compound 399276]", "% Inhibition / %": 86}
{"Substance": "399315 (antisense eG*eG*d[5mC]*dA*dA*d[5mC]*dT*dT*d[5mC]*dA*dA*d[5mC]*e[5mC]*eT) [compound 399315]", "% Inhibition / %": 93}

---

Test system: rat DGAT2 mRNA
Test Details: Dose-dependent inhibition of DGAT2 in A10 cells (Tables 82, 83)
Format: cell-based
Measurement Conditions: 16.67 nM (Table 83)
Strand notation (5' to 3'): a small letter for the sugar, then the base; units joined by * are phosphorothioate-linked, units joined directly phosphodiester-linked; [ ] holds rarer units or linkages, { } end groups; capitals alone tell only the bases. e = 2'-O-(2-methoxyethyl) (MOE); [5mC] = 5-methylcytosine; d = 2'-deoxy (DNA)
percent inhibition of rat DGAT2 values by entry
Measured Property: percent inhibition of rat DGAT2 (%)

{"Substance": "372594 (antisense eA*e[5mC]*dA*dG*dA*dA*dG*dG*d[5mC]*dA*d[5mC]*d[5mC]*e[5mC]*eA) [compound 372594]", "Tgt": "rat DGAT2 mRNA", "Unit Symbol": "%", "Measured Number": 0}
{"Substance": "372516 (antisense eT*eA*e[5mC]*dA*dG*dA*dA*dG*dG*d[5mC]*dA*d[5mC]*d[5mC]*e[5mC]*eA*eG) [compound 372516]", "Tgt": "rat DGAT2 mRNA", "Unit Symbol": "%", "Measured Number": 4}
{"Substance": "372578 (antisense eT*eG*dT*dG*dT*d[5mC]*dT*dT*d[5mC]*dA*d[5mC]*d[5mC]*eA*eG) [compound 372578]", "Tgt": "rat DGAT2 mRNA", "Unit Symbol": "%", "Measured Number": 2}
{"Substance": "372546 (antisense eT*eT*eG*dG*dT*d[5mC]*dT*dT*dG*dT*dG*dA*dT*eT*eG*eT) [compound 372546]", "Tgt": "rat DGAT2 mRNA", "Unit Symbol": "%", "Measured Number": 4}
{"Substance": "372580 (antisense eG*eG*dT*dT*dG*dT*dG*dT*dG*dT*d[5mC]*dT*eT*e[5mC]) [compound 372580]", "Tgt": "rat DGAT2 mRNA", "Unit Symbol": "%", "Measured Number": 3}
{"Substance": "372508 (antisense eA*eG*eT*dT*d[5mC]*d[5mC]*dT*dG*dG*dT*dG*dG*dT*e[5mC]*eA*eG) [compound 372508]", "Tgt": "rat DGAT2 mRNA", "Unit Symbol": "%", "Measured Number": 14}
{"Substance": "372624 (antisense eT*eG*dG*dT*d[5mC]*dT*dT*dG*dT*dG*dA*dT*eT*eG) [compound 372624]", "Tgt": "rat DGAT2 mRNA", "Unit Symbol": "%", "Measured Number": 1}
{"Substance": "372563 (antisense eA*eG*d[5mC]*d[5mC]*dA*dG*dG*dT*dG*dA*d[5mC]*dA*eG*eA) [compound 372563]", "Tgt": "rat DGAT2 mRNA", "Unit Symbol": "%", "Measured Number": 1}
{"Substance": "372501 (antisense eT*eT*eG*dT*dG*dT*dG*dT*d[5mC]*dT*dT*d[5mC]*dA*e[5mC]*e[5mC]*eA) [compound 372501]", "Tgt": "rat DGAT2 mRNA", "Unit Symbol": "%", "Measured Number": 11}
{"Substance": "372586 (antisense eG*eT*dT*d[5mC]*d[5mC]*dT*dG*dG*dT*dG*dG*dT*e[5mC]*eA) [compound 372586]", "Tgt": "rat DGAT2 mRNA", "Unit Symbol": "%", "Measured Number": 0}

---

Test system: PTP1B mRNA
Test Details: Dose response for human PTP1B in HuVEC cells, PPS 198 and PPS 3000 (Tables 86, 87)
Type: cell-based
Measurement Conditions: PPS 3000, 1.11 nM
Strand notation (5' to 3'): a small letter for the sugar, then the base; units joined by * are phosphorothioate-linked, units joined directly phosphodiester-linked; [ ] holds rarer units or linkages, { } end groups; capitals alone tell only the bases. e = 2'-O-(2-methoxyethyl) (MOE); [5mC] = 5-methylcytosine; d = 2'-deoxy (DNA)
# % Inhibition values compiled below

{"Substance": "399173 (eA*eT*dG*d[5mC]*dT*dA*dG*dT*dG*d[5mC]*dA*d[5mC]*eT*eA; antisense) [compound 399173]", "% Inhibition (%)": 0}
{"Substance": "399276 (eG*eA*dG*dG*dT*dA*dT*d[5mC]*d[5mC]*d[5mC]*dA*dT*e[5mC]*eT; antisense) [compound 399276]", "% Inhibition (%)": 0}
{"Substance": "398173 (e[5mC]*dA*dG*d[5mC]*d[5mC]*dT*dG*dG*dG*d[5mC]*dA*e[5mC]) [compound 398173]", "% Inhibition (%)": 0}
{"Substance": "398120 (eG*eT*dT*d[5mC]*dA*dA*dG*d[5mC]*dG*dG*d[5mC]*d[5mC]*eT*eA) [compound 398120]", "% Inhibition (%)": 0}
{"Substance": "399315 (antisense eG*eG*d[5mC]*dA*dA*d[5mC]*dT*dT*d[5mC]*dA*dA*d[5mC]*e[5mC]*eT) [compound 399315]", "% Inhibition (%)": 0}
{"Substance": "399301 (GTGTGCACACAGCT; all C 5-methyl, all phosphorothioate, sugars by position not given here; further chemistry not fully specified) [compound 399301]", "% Inhibition (%)": 16}

---

Tested on: rat DGAT2 mRNA
Test Details: Dose-dependent inhibition of DGAT2 in A10 cells (Tables 82, 83)
Format: cell-based
Measurement Conditions: 50.0 nM (Table 82)
Strand notation (5' to 3'): a small letter for the sugar, then the base; units joined by * are phosphorothioate-linked, units joined directly phosphodiester-linked; [ ] holds rarer units or linkages, { } end groups; capitals alone tell only the bases. e = 2'-O-(2-methoxyethyl) (MOE); [5mC] = 5-methylcytosine; d = 2'-deoxy (DNA)

{"Substance": "372568 (antisense eG*eA*d[5mC]*dA*d[5mC]*dT*dG*d[5mC]*dA*dG*dG*d[5mC]*e[5mC]*eA) [compound 372568]", "Unit Symbol": "%", "percent inhibition of DGAT2": 26}
{"Substance": "372586 (antisense eG*eT*dT*d[5mC]*d[5mC]*dT*dG*dG*dT*dG*dG*dT*e[5mC]*eA) [compound 372586]", "Unit Symbol": "%", "percent inhibition of DGAT2": 22}
{"Substance": "372618 (antisense eG*eT*dG*dG*dT*dA*d[5mC]*dA*dG*dG*dT*d[5mC]*eG*eA) [compound 372618]", "Unit Symbol": "%", "percent inhibition of DGAT2": 27}
{"Substance": "372602 (antisense e[5mC]*e[5mC]*dA*dG*dG*d[5mC]*dA*dT*dG*dG*dA*dG*e[5mC]*eT) [compound 372602]", "Unit Symbol": "%", "percent inhibition of DGAT2": 18}
{"Substance": "372562 (antisense eG*eT*d[5mC]*dT*dT*dG*dG*dA*dG*dG*dG*d[5mC]*e[5mC]*eG) [compound 372562]", "Unit Symbol": "%", "percent inhibition of DGAT2": 36}
